Molecular target: Papain (Carica papaya, UniProt P00784)
Sequence (P00784 134-345): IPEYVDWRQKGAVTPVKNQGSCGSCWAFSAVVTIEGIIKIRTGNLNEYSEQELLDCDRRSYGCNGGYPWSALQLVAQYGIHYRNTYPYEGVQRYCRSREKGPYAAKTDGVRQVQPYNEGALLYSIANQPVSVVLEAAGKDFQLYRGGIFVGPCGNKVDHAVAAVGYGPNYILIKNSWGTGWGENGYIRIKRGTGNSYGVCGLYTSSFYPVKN
endpoint: IC50

INSERT INTO measurements (chemical_smiles, target_under_test, experimental_value) VALUES
  ('O=C(CSc1nc2ccccc2s1)[C@H](Cc1ccccc1)NC(=O)[C@@H]1CCCN2C(=O)CC[C@H](NS(=O)(=O)c3ccc(C(F)(F)F)cc3)C(=O)N12', 'Papain (Carica papaya, UniProt P00784)', '7 µM'),
  ('O=C(NCCc1cccs1)N[C@H]1CCC(=O)N2CCC[C@@H](C(=O)N[C@@H](Cc3ccccc3)C(=O)CSc3nc4ccccc4s3)N2C1=O', 'Papain (Carica papaya, UniProt P00784)', '7 µM'),
  ('O=C(NCCc1cccs1)N[C@H]1CCC(=O)N2CCC[C@@H](C(=O)N[C@@H](Cc3ccccc3)C(=O)CSc3nnnn3-c3ccccc3)N2C1=O', 'Papain (Carica papaya, UniProt P00784)', '6 µM'),
  ('CC(C)[C@H](NC(=O)[C@@H]1CCCN2C(=O)CC[C@H](NC(=O)Nc3ccc(Oc4ccccc4)cc3)C(=O)N12)C(=O)CSc1nc2ccccc2s1', 'Papain (Carica papaya, UniProt P00784)', '6 µM'),
  ('CC(C)[C@H](NC(=O)[C@@H]1CCCN2C(=O)CC[C@H](NC(=O)c3ccco3)C(=O)N12)C(=O)CSc1nc2ccccc2s1', 'Papain (Carica papaya, UniProt P00784)', '7 µM'),
  ('CC(C)[C@H](NC(=O)[C@@H]1CCCN2C(=O)CC[C@H](NC(=O)NC3CCCCC3)C(=O)N12)C(=O)CSc1nc2ccccc2s1', 'Papain (Carica papaya, UniProt P00784)', '9 µM'),
  ('CC(C)(C)Oc1ccc(C[C@H](NC(=O)[C@@H]2CCCN3C(=O)CC[C@H](NC(=O)Nc4ccc(Oc5ccccc5)cc4)C(=O)N23)C(=O)C=[N+]=[N-])cc1', 'Papain (Carica papaya, UniProt P00784)', '15 µM'),
  ('O=C(NCCc1cccs1)N[C@H]1CCC(=O)N2CCC[C@@H](C(=O)N[C@@H](Cc3ccccc3)C(=O)COC(=O)c3c(Cl)cccc3Cl)N2C1=O', 'Papain (Carica papaya, UniProt P00784)', '8 µM');

====

target: Cathepsin K (Homo sapiens, UniProt P43235); experiment: Study of Cathepsin K inhibition (fluorescence, Z-Val-arg-AMC); assay type: biochemical; settings: substrate Z-Val-arg-AMC 20 μM, enzyme 5 ng/ml, 2H at ambient temperature; read-out: Cathepsin K IC50
Sequence (P43235 115-329, species assumed): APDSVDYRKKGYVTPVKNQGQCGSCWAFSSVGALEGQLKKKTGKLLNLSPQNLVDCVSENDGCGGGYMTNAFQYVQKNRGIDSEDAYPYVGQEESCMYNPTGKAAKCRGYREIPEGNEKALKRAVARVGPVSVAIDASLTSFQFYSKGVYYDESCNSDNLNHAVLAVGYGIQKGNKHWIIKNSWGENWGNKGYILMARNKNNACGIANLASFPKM
Rule: measured IC50 below 20 µM gets condition met; anything equal to or greater than 20 µM gets condition not met.

INSERT INTO results (compound, class_label) VALUES
  ('CC(C)C[C@H](NC(=O)[C@@H]1CCCN2C(=O)CC[C@H](NC(=O)NC3CCCCC3)C(=O)N12)C(=O)C=[N+]=[N-]', 'condition met'),
  ('C=CCOC(=O)CC[C@H](NC(=O)[C@@H]1CCCN2C(=O)CC[C@H](NC(=O)C(C)C)C(=O)N12)C(=O)C=[N+]=[N-]', 'condition met'),
  ('C=CCOC(=O)CCC(NC(=O)C1CCCN2C(=O)CCC(NC(=O)NCCc3cccs3)C(=O)N12)C(=O)CSc1nnnn1-c1ccccc1 (stereo not drawn)', 'condition not met'),
  ('CC(C)C[C@H](NC(=O)[C@@H]1CCCN2C(=O)CC[C@H](NC(=O)NCCc3cccs3)C(=O)N12)C(=O)C=[N+]=[N-]', 'condition met'),
  ('C=CCOC(=O)CC[C@H](NC(=O)[C@@H]1CCCN2C(=O)CC[C@H](NS(C)(=O)=O)C(=O)N12)C(=O)C=[N+]=[N-]', 'condition met');

====

molecular target: Papain (Carica papaya); construct: purchased Sigma; experiment: Study of Papain inhibition (fluorescence); type: biochemical; details: enzyme 20 ng/ml, 30 minutes at ambient temperature
endpoint: IC50 (µM)

INSERT INTO assay_data (chemical_smiles, endpoint, unit_info, experimental_value) VALUES
  ('COc1cccc(C(=O)N[C@H]2CCC(=O)N3CCC[C@@H](C(=O)N[C@H](C(=O)CSc4nc5ccccc5s4)C(C)C)N3C2=O)c1', 'IC50', 'µM', 17),
  ('CC(C)[C@H](NC(=O)[C@@H]1CCCN2C(=O)CC[C@H](NC(=O)NCCc3cccs3)C(=O)N12)C(=O)CSc1nc2ccccc2s1', 'IC50', 'µM', 9),
  ('CC(C)[C@H](NC(=O)[C@@H]1CCCN2C(=O)CC[C@H](NC(=O)NCCc3cccs3)C(=O)N12)C(=O)CSc1nnnn1-c1ccccc1', 'IC50', 'µM', 18),
  ('C=CCOC(=O)CC[C@H](NC(=O)[C@@H]1CCCN2C(=O)CC[C@H](NC(=O)Nc3ccc(Oc4ccccc4)cc3)C(=O)N12)C(=O)COC(=O)c1ccncc1', 'IC50', 'µM', 9),
  ('O=C(Nc1ccc(Oc2ccccc2)cc1)N[C@H]1CCC(=O)N2CCC[C@@H](C(=O)N[C@@H](Cc3ccccc3)C(=O)COC(=O)Cc3ccsc3)N2C1=O', 'IC50', 'µM', 6),
  ('C=CCOC(=O)CC[C@H](NC(=O)[C@@H]1CCCN2C(=O)CC[C@H](NC(=O)Nc3ccc(Oc4ccccc4)cc3)C(=O)N12)C(=O)COC(=O)Cc1ccsc1', 'IC50', 'µM', 7),
  ('C=CCOC(=O)CC[C@H](NC(=O)[C@@H]1CCCN2C(=O)CC[C@H](NC(=O)Nc3ccc(Oc4ccccc4)cc3)C(=O)N12)C(=O)COC(=O)c1c(Cl)cccc1Cl', 'IC50', 'µM', 6),
  ('C=CCOC(=O)CC[C@H](NC(=O)[C@@H]1CCCN2C(=O)CC[C@H](NC(=O)Nc3ccc(Oc4ccccc4)cc3)C(=O)N12)C(=O)CSc1nc2ccccc2s1', 'IC50', 'µM', 4),
  ('C[C@H](NC(=O)[C@@H]1CCCN2C(=O)CC[C@H](NC(=O)Nc3ccc(Oc4ccccc4)cc3)C(=O)N12)C(=O)CSc1nc2ccccc2s1', 'IC50', 'µM', 18),
  ('C=CCOC(=O)CC[C@H](NC(=O)[C@@H]1CCCN2C(=O)CC[C@H](NC(=O)Nc3ccc(Oc4ccccc4)cc3)C(=O)N12)C(=O)CSc1nnnn1-c1ccccc1', 'IC50', 'µM', 6),
  ('C=CCOC(=O)CC[C@H](NC(=O)[C@@H]1CCCN2C(=O)CC[C@H](NC(=O)Nc3ccc(Oc4ccccc4)cc3)C(=O)N12)C(=O)CSCc1ccc(OC)cc1', 'IC50', 'µM', 6);

====

Molecular target: Cathepsin K (Homo sapiens, UniProt P43235)
Experiment: Study of Cathepsin K inhibition (fluorescence, Z-Val-arg-AMC)
Type: biochemical
Conditions: substrate Z-Val-arg-AMC 20 μM, enzyme 5 ng/ml, 2H at ambient temperature; read-out: Cathepsin K IC50
Description: Study of Cathepsin K Inhibition: The products to be tested (10 mM) are diluted to […] in DMSO and distributed into Nunc polystyrene 96 well plates at a rate of 2 μl per well. Column 12 of the plate is reserved for the controls and therefore receives […] of DMSO (without products) per well. The plates are stored at −80° C. and thawed on the day of the experiment. […] The plates are then incubated 2H at ambient temperature, then read on Fluoroskan (Labsystems): excitation 390 nm; emission 460 nm […]
pIC50: −log10 of the molar value.
endpoint: pIC50

INSERT INTO measurements (compound, endpoint, experimental_value) VALUES
  ('C=CCOC(=O)CC[C@H](NC(=O)[C@@H]1CCCN2C(=O)CC[C@H](NC(=O)c3ccco3)C(=O)N12)C(=O)COC(=O)c1c(Cl)cccc1Cl [Example 91]', 'pIC50', 5.22),
  ('O=C(NCCc1cccs1)N[C@H]1CCC(=O)N2CCC[C@@H](C(=O)N[C@@H](Cc3ccccc3)C(=O)CSc3nnnn3-c3ccccc3)N2C1=O [Example 220]', 'pIC50', 4.70),
  ('CC(C)[C@H](NC(=O)[C@@H]1CCCN2C(=O)CC[C@H](NC(=O)NCCc3cccs3)C(=O)N12)C(=O)CSc1nnnn1-c1ccccc1 [Example 397]', 'pIC50', 4.70);

====

target: Cathepsin K (Homo sapiens); experiment: Study of Cathepsin K inhibition (fluorescence, Z-Val-arg-AMC); assay type: biochemical; conditions: substrate Z-Val-arg-AMC 20 μM, enzyme 5 ng/ml, 2H at ambient temperature; read-out: Cathepsin K IC50
Quick reference for IC50 among some compounds
endpoint: IC50 (µM)

INSERT INTO results (compound, target_under_test, experimental_value) VALUES
  ('CC(C)C[C@H](NC(=O)[C@@H]1CCCN2C(=O)CC[C@H](NS(=O)(=O)c3ccc4ccccc4c3)C(=O)N12)C(=O)COC(=O)c1c(Cl)cccc1Cl [Example 322]', 'Cathepsin K (Homo sapiens)', 20),
  ('CC(C)C[C@H](NC(=O)[C@@H]1CCCN2C(=O)CC[C@H](NC(=O)Nc3ccc(Oc4ccccc4)cc3)C(=O)N12)C(=O)C=[N+]=[N-] [Example 344]', 'Cathepsin K (Homo sapiens)', 5),
  ('C=CCOC(=O)CC[C@H](NC(=O)[C@@H]1CCCN2C(=O)CC[C@H](NC(=O)Nc3ccc(Oc4ccccc4)cc3)C(=O)N12)C(=O)CSCc1ccc(OC)cc1 [Example 130]', 'Cathepsin K (Homo sapiens)', 20),
  ('C=CCOC(=O)CC[C@H](NC(=O)[C@@H]1CCCN2C(=O)CCC[C@H](NC(=O)NC3CCCCC3)C(=O)N12)C(=O)COC(=O)c1c(Cl)cccc1Cl [Example 122]', 'Cathepsin K (Homo sapiens)', 18),
  ('C=CCOC(=O)CC[C@H](NC(=O)[C@@H]1CCCN2C(=O)CC[C@H](NC(=O)Nc3ccc(Oc4ccccc4)cc3)C(=O)N12)C(=O)CSc1nnnn1-c1ccccc1 [Example 128]', 'Cathepsin K (Homo sapiens)', 20),
  ('O=C(NCCc1cccs1)N[C@H]1CCC(=O)N2CCC[C@@H](C(=O)N[C@@H](Cc3ccccc3)C(=O)CN3CCN(CC(=O)N4CCCC4)CC3)N2C1=O [Example 229]', 'Cathepsin K (Homo sapiens)', 20),
  ('[N-]=[N+]=CC(=O)[C@H](Cc1ccccc1)NC(=O)[C@@H]1CCCN2C(=O)CC[C@H](NS(=O)(=O)c3ccc4ccccc4c3)C(=O)N12 [Example 165]', 'Cathepsin K (Homo sapiens)', 20),
  ('[N-]=[N+]=CC(=O)[C@H](Cc1ccccc1)NC(=O)[C@@H]1CCCN2C(=O)CC[C@H](NC(=O)NCCc3cccs3)C(=O)N12 [Example 162]', 'Cathepsin K (Homo sapiens)', 20),
  ('CC(C)C[C@H](NC(=O)[C@@H]1CCCN2C(=O)CC[C@H](NS(=O)(=O)c3ccc(C(F)(F)F)cc3)C(=O)N12)C(=O)C=[N+]=[N-] [Example 347]', 'Cathepsin K (Homo sapiens)', 12),
  ('C=CCOC(=O)CC[C@H](NC(=O)[C@@H]1CCCN2C(=O)CC[C@H](NC(=O)NC3CCCCC3)C(=O)N12)C(=O)C=[N+]=[N-] [Example 42]', 'Cathepsin K (Homo sapiens)', 4),
  ('C=CCOC(=O)CC[C@H](NC(=O)[C@@H]1CCCN2C(=O)CC[C@H](NS(=O)(=O)c3ccc(-c4ccon4)s3)C(=O)N12)C(=O)C=[N+]=[N-] [Example 48]', 'Cathepsin K (Homo sapiens)', 3),
  ('CC(C)C[C@H](NC(=O)[C@@H]1CCCN2C(=O)CC[C@H](NC(=O)C(C)C)C(=O)N12)C(=O)C=[N+]=[N-] [Example 339]', 'Cathepsin K (Homo sapiens)', 10),
  ('COc1cccc(C(=O)N[C@H]2CCC(=O)N3CCC[C@@H](C(=O)N[C@@H](CC(C)C)C(=O)C=[N+]=[N-])N3C2=O)c1 [Example 340]', 'Cathepsin K (Homo sapiens)', 7),
  ('CC(C)C[C@H](NC(=O)[C@@H]1CCCN2C(=O)CC[C@H](NS(C)(=O)=O)C(=O)N12)C(=O)COC(=O)c1c(Cl)cccc1Cl [Example 304]', 'Cathepsin K (Homo sapiens)', 12),
  ('O=C(NCCc1cccs1)N[C@H]1CCC(=O)N2CCC[C@@H](C(=O)N[C@@H](Cc3ccccc3)C(=O)COC(=O)c3c(Cl)cccc3Cl)N2C1=O [Example 224]', 'Cathepsin K (Homo sapiens)', 20),
  ('C=CCOC(=O)CC[C@H](NC(=O)[C@@H]1CCCN2C(=O)CC[C@H](NC(=O)c3ccco3)C(=O)N12)C(=O)C=[N+]=[N-] [Example 40]', 'Cathepsin K (Homo sapiens)', 1.8);
